Recorded values, source patent US20080161289A1.

TESTED SYSTEM: histamine H3 receptors (Homo sapiens, UniProt Q9Y5N1)
Construct: expressed in transfected cells; host or cells: CHO K1 cells carrying pSwitch, transfected with pGeneH3, induced with mifepristone; clone 3H3; membrane preparation
Sequence (Q9Y5N1 whole entry): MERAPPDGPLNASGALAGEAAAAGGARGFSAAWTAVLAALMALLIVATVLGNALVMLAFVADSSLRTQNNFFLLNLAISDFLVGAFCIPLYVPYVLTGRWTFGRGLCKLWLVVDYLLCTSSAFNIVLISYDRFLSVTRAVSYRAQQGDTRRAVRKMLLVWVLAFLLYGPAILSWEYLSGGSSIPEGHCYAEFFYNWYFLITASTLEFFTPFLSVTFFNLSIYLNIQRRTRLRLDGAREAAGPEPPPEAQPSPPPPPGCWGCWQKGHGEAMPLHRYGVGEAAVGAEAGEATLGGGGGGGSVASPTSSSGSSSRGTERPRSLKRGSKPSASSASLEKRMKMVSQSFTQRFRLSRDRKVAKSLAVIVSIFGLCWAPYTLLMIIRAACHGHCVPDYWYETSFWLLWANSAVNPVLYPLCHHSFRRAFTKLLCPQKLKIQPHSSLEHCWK
EXPERIMENT SUMMARY: Histamine H3 functional antagonist assay ([35S]-GTPγS SPA on membranes from H3 cells)
Assay type: biochemical
TEST PARAMETERS: hydrochloride salts tested; H3 functional antagonist assay using membrane prepared from cultured H3 cells; averages of a number of experiments; read-out: functional pKi (fpKi) (converted)
Entries and their Ki
REPORTED METRIC: Ki

compound="Cc1cccc(N2CCC(c3nc4c(s3)CCN(C3CCC3)CC4)C2)n1 (racemic)" measured_value="< 0.316 nM"
compound=CN1CCN(c2ccc(-c3nc4c(s3)CCN(C3CCCC3)CC4)cc2)C1=O measured_value="< 0.316 nM"
compound=N#Cc1cncc(N2CCC(c3nc4c(s3)CCN(C3CCC3)CC4)CC2)c1 measured_value="< 1.26 nM"
compound="N#Cc1ccc(C(=O)N2CCC(c3nc4c(s3)CCN(C3CCC3)CC4)C2)cc1 (stereo not shown)" measured_value="< 1.26 nM"

----------
Ki for assorted compounds
TESTED SYSTEM: histamine H3 receptors (Homo sapiens)
Construct: expressed in transfected cells; host or cells: CHO K1 cells carrying pSwitch, transfected with pGeneH3, induced with mifepristone; clone 3H3; membrane preparation
EXPERIMENT SUMMARY: Histamine H3 functional antagonist assay ([35S]-GTPγS SPA on membranes from H3 cells)
Assay type: biochemical
TEST PARAMETERS: hydrochloride salts tested; H3 functional antagonist assay using membrane prepared from cultured H3 cells; averages of a number of experiments; read-out: functional pKi (fpKi) (converted)
REPORTED METRIC: Ki

compound=c1ccc(-c2nc3c(s2)CCN(C2CCC2)CC3)cc1 measured_value="< 31.6 nM"
compound=O=S1(=O)CCCN1c1ccc(-c2nc3c(s2)CCN(C2CCC2)CC3)cc1 measured_value="< 1.26 nM"
compound=c1cc(N2CCCCC2)ncc1-c1nc2c(s1)CCN(C1CCC1)CC2 measured_value="< 1.26 nM"
compound=CNC(=O)c1ccc(-c2nc3c(s2)CCN(C2CCC2)CC3)cn1 measured_value="< 1.26 nM"
compound=Cc1ccc(N2CCC(c3nc4c(s3)CCN(C3CCC3)CC4)CC2)cn1 measured_value="< 1.26 nM"
compound=N#Cc1ccc(N2CCC(c3nc4c(s3)CCN(C3CCC3)CC4)CC2)cc1 measured_value="< 0.316 nM"
compound=c1cc(-c2nc3c(s2)CCN(C2CCC2)CC3)ccc1-c1csnn1 measured_value="< 1.26 nM"
compound=O=C(c1cccc(Cl)c1)N1CCC(c2nc3c(s2)CCN(C2CCC2)CC3)CC1 measured_value="< 0.316 nM"
compound=Cc1cncc(C(=O)N2CCC(c3nc4c(s3)CCN(C3CCC3)CC4)CC2)c1 measured_value="< 0.316 nM"
compound=CN(C)C(=O)c1ccc(N2CCC(c3nc4c(s3)CCN(C3CCC3)CC4)CC2)cn1 measured_value="< 1.26 nM"
compound=Cc1cccc(C(=O)N2CCC(c3nc4c(s3)CCN(C3CCC3)CC4)CC2)c1 measured_value="< 1.26 nM"
compound=Cc1ccccc1NC(=O)N1CCC(c2nc3c(s2)CCN(C2CCC2)CC3)CC1 measured_value="< 1.26 nM"
compound=O=C1CCCN1c1ccc(-c2nc3c(s2)CCN(C2CCC2)CC3)cc1 measured_value="< 0.316 nM"
compound=O=C(c1csnn1)N1CCC(c2nc3c(s2)CCN(C2CCC2)CC3)CC1 measured_value="< 1.26 nM"
compound=CN1CCN(c2ccc(-c3nc4c(s3)CCN(C3CCC3)CC4)cn2)C1=O measured_value="< 0.316 nM"
compound="Cc1ccc(N2CCC(c3nc4c(s3)CCN(C3CCC3)CC4)C2)cn1 (racemic)" measured_value="< 1.26 nM"
compound=c1ncc(-c2nc3c(s2)CCN(C2CCC2)CC3)cn1 measured_value="< 31.6 nM"
compound=CC(C)CN1CCc2nc(-c3ccc(N4CCN(C)C4=O)cc3)sc2CC1 measured_value="< 0.316 nM"
